studySystem: human 5-HT1AR (Homo sapiens, UniProt P08908)
Sequence (P08908 1-422): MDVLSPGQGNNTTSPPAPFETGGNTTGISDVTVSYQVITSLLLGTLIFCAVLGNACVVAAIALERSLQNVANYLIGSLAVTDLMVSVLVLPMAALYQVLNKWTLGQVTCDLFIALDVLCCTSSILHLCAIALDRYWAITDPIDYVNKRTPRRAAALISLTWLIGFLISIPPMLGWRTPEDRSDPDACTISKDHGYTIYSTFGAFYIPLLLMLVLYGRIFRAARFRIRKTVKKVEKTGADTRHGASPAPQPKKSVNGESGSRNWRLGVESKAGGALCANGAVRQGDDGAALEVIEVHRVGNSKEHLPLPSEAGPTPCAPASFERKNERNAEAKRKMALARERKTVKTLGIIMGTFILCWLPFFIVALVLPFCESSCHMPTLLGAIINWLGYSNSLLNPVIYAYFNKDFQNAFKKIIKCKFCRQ
testSummary: Ultra Lance cAMP assay, 5-HT1AR
protocolConditions: agonistic functional activity, human 5-HT1AR expressed by HEK-293 cells; NA: no activity
hey, just use Y if measured EC50 is less than 0.05 µM, otherwise N

compound	className
N#Cc1ccc2[nH]cc(CCCN3CCN(C(=O)c4cc(S(=O)(=O)NCC5CC5)ccc4OC4COC4)CC3)c2c1 [Compound 13q]	N
CC(C)Oc1ccc(S(=O)(=O)NCC2CC2)cc1C(=O)N1CCN(CCCc2c[nH]c3ccc(C#N)cc23)CC1 [Compound 13o]	Y
CCOc1ccc(S(=O)(=O)NCC2CC2)cc1C(=O)N1CCN(CCCc2c[nH]c3ccc(C#N)cc23)CC1 [Compound 13p]	Y
CC(C)COc1ccc(S(=O)(=O)NCC2CC2)cc1C(=O)N1CCN(CCCc2c[nH]c3ccc(C#N)cc23)CC1 [Compound 13m]	Y
N#Cc1ccc2[nH]cc(CCCN3CCN(C(=O)c4cc(S(=O)(=O)NCC5CC5)ccc4OCC4COC4)CC3)c2c1 [Compound 13n]	Y
CS(=O)(=O)c1ccc(OCC2CC2)c(C(=O)N2CCN(CCCc3c[nH]c4ccc(C#N)cc34)CC2)c1 [Compound 13d]	N
CNS(=O)(=O)c1ccc(OCC2CC2)c(C(=O)N2CCN(CCCc3c[nH]c4ccc(C#N)cc34)CC2)c1 [Compound 13f]	Y

----------
studySystem: human 5-HT1AR (Homo sapiens, UniProt P08908)
Sequence (P08908 1-422): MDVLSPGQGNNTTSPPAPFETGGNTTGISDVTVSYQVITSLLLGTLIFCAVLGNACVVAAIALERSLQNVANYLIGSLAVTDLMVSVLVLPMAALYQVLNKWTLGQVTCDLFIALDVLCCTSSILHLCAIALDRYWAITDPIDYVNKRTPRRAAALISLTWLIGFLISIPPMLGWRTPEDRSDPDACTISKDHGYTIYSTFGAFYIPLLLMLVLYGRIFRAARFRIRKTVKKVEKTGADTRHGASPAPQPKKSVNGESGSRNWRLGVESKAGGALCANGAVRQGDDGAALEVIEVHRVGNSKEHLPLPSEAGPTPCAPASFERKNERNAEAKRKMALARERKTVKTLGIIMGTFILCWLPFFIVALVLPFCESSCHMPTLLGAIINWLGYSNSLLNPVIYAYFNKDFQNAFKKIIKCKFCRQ
testSummary: Ultra Lance cAMP assay, 5-HT1AR
protocolConditions: agonistic functional activity, human 5-HT1AR expressed by HEK-293 cells; NA: no activity

compound	EC50
CS(=O)(=O)c1ccc(F)c(C(=O)N2CCN(CCCc3c[nH]c4ccc(C#N)cc34)CC2)c1 [Compound 13a]	0.168 µM
CNS(=O)(=O)c1ccc(OCC2COC2)c(C(=O)N2CCN(CCCc3c[nH]c4ccc(C#N)cc34)CC2)c1 [Compound 13i]	0.4 µM
CCS(=O)(=O)c1ccc(OCC2CC2)c(C(=O)N2CCN(CCCc3c[nH]c4ccc(C#N)cc34)CC2)c1 [Compound 13e]	0.0492 µM
CNS(=O)(=O)c1ccc(OCC(C)C)c(C(=O)N2CCN(CCCc3c[nH]c4ccc(C#N)cc34)CC2)c1 [Compound 13h]	0.00567 µM
CNS(=O)(=O)c1ccc(OC2COC2)c(C(=O)N2CCN(CCCc3c[nH]c4ccc(C#N)cc34)CC2)c1 [Compound 13l]	0.524 µM
CC(Oc1ccc(S(C)(=O)=O)cc1C(=O)N1CCN(CCCc2c[nH]c3ccc(C#N)cc23)CC1)C(F)(F)F (stereo not drawn) [Compound 13c]	0.197 µM
N#Cc1ccc2[nH]cc(CCCN3CCN(C(=O)c4cc(S(=O)(=O)NCC5CC5)ccc4OCC4CC4)CC3)c2c1 [Compound 13g]	0.00535 µM
CCOc1ccc(S(=O)(=O)NC)cc1C(=O)N1CCN(CCCc2c[nH]c3ccc(C#N)cc23)CC1 [Compound 13k]	0.0775 µM
CS(=O)(=O)c1ccc(N2CCOCC2)c(C(=O)N2CCN(CCCc3c[nH]c4ccc(C#N)cc34)CC2)c1 [Compound 13b]	0.99 µM
